TEST_PROTOCOL: yeast display, Sf9 membrane polyspecificity reagent, FACS + sequencing; frameworks hold sequencing errors
READOUT_TYPE: polyreactivity (PSR sort gate)

Please review the entries below; each comes with its answer.
| SEQUENCE_TEXT | READOUT_TYPE | RESULT |
| --- | --- | --- |
| QVQLVESGGGLVQAGGSLRLSCAASGRIFVGYAMGWYRQAPGKERELVATITGSGGRTYYADSVKGRFTISRDNAKNTVYLQMNSLKPEDTAVFYCATRPPLFYYDDHDDDDYWGQGTQVTVSS | polyreactivity (PSR sort gate) | low polyreactivity |
| QVQLVESGGGLVQAGGSLRLSCAASGSTSRSYTMGWYRQAPGKEREFVASIRWSGGRTYNADSVKGRFTISRDNAKNTVYLQMNSLKPEDTAVYYCNADYYRLRFRLGWYDYWGQGTQVTVSS | polyreactivity (PSR sort gate) | high polyreactivity |
| QVQLVESGGGLVQAGRSLRLSCAASGLIFPWNAMGWYRQAPGKQRELVAAINGRDGSTYYADSVKGRFTISRDNAKNTVYLQMNSLKPEDTAVYYCAKGPSGVRSYREYDSWGQGTQVTVSS | polyreactivity (PSR sort gate) | low polyreactivity |
| QVQLVESGGGLVQAGGILRLSCAASGSIFSGNDMGWYRQAPGKERELVASINRSGGSTNYAVSVKGRFTISRDNAKNTVYLQMNSLKPEDTAVYYCARDFSFLGNASARLDYDYWGQGSQVTVSS | polyreactivity (PSR sort gate) | low polyreactivity |

# ---- query sequence ----
Tell us which polyreactivity (PSR sort gate) value is on record for "QVQLVESVGGLVQAGGSLRLSCAASGRIFYKNVMGWYRQAPRKERELVAAISTSTGRTYYADSVNGRFTISRDNAKNTVYLQMNSLKPEDTAVYYCNAVRGLTNGVLYRYDYWGQGTQVTVSS"
high polyreactivity
